- Test system: P388 leukemia ip, CD2F1 mice, survival T/C
- EXPERIMENTAL_DETAILS: NCI In Vivo Anticancer Drug Screen. Data for tumor model P388 Leukemia (intraperitoneal) in CD2F1 (CDF1) mice
- PARTICULARS: endpoint: median survival time; dose: 200.0 mg/kg/injection; schedule: Q04DX003 (ip); vehicle: saline
Toxic doses and inconclusive results are not listed. How the source made its calls: active means survival T/C of 150% or more; inactive means T/C below 125% in these data.
Choose one outcome from this list and give only that: TRUE = active, FALSE = inactive

These recorded examples may help you get a feel for the data.
[[record]]
compound = "O=C(O)CC(O)CCCCCO (stereo not drawn)"
target_under_test = "P388 leukemia ip, CD2F1 mice, survival T/C"
discrete_label = "FALSE"

[[record]]
compound = "COCC(=O)c1ccc(C#N)cc1"
target_under_test = "P388 leukemia ip, CD2F1 mice, survival T/C"
discrete_label = "FALSE"

[[record]]
compound = "CCOCCC(O)CC (stereo not drawn)"
target_under_test = "P388 leukemia ip, CD2F1 mice, survival T/C"
discrete_label = "FALSE"

[[record]]
compound = "CC(=O)CC(c1ccccc1)C(C(=O)O)c1ccccc1 (stereo not drawn)"
target_under_test = "P388 leukemia ip, CD2F1 mice, survival T/C"
discrete_label = "FALSE"


What call does the record list for CC1(C)OOC(C)(O)C1Br (stereo not drawn) ?
FALSE

What call does the record list for NC(Cc1cccc(NP(=S)(N2CC2)N2CC2)c1)C(=O)O (stereo not drawn) ?
TRUE

What call does the record list for O=S(=O)(O)/[N+]([O-])=N/O ?
FALSE

What call does the record list for COCC1(C)CCCC2(C)C3=C(CCC(O)C3)CCC12 (stereo not drawn) ?
FALSE

The measured values listed here are drawn from PubChem BioAssay AID330.
